biological target: T1, VLP2 (virus-like particles of AAV2) (AAV2, UniProt P03135 1-735; P03135 1-598; P03135 1-533); experiment: ELISA on VLP2; binding after pH 10.0 41.2°C 15 min / untreated
T1 construct: Empty AAV2 capsid; background says about 60 protein molecules, VP1:VP2:VP3 = 1:1:10; Immobilised on the ELISA plate
T1 sequence (P03135 whole entry, chain 1 of 3): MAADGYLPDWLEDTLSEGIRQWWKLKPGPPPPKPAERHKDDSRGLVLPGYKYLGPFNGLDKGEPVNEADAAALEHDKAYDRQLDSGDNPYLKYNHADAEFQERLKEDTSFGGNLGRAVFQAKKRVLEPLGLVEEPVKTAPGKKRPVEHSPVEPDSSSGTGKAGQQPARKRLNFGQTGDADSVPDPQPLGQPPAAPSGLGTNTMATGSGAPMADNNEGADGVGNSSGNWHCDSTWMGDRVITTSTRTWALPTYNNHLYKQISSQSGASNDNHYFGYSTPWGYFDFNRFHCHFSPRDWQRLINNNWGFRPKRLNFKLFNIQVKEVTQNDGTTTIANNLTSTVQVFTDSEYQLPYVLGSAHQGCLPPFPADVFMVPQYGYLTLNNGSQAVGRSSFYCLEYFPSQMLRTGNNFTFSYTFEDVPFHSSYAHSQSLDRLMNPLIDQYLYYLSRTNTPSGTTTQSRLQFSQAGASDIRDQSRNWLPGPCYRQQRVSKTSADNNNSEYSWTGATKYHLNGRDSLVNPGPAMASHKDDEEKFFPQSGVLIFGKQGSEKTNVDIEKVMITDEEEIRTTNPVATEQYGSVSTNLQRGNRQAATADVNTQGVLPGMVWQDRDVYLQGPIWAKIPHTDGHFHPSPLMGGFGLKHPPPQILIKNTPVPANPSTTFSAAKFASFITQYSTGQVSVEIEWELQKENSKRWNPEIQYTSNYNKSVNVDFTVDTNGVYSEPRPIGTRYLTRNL
T1 sequence (P03135 139-735, tags left off, chain 2 of 3): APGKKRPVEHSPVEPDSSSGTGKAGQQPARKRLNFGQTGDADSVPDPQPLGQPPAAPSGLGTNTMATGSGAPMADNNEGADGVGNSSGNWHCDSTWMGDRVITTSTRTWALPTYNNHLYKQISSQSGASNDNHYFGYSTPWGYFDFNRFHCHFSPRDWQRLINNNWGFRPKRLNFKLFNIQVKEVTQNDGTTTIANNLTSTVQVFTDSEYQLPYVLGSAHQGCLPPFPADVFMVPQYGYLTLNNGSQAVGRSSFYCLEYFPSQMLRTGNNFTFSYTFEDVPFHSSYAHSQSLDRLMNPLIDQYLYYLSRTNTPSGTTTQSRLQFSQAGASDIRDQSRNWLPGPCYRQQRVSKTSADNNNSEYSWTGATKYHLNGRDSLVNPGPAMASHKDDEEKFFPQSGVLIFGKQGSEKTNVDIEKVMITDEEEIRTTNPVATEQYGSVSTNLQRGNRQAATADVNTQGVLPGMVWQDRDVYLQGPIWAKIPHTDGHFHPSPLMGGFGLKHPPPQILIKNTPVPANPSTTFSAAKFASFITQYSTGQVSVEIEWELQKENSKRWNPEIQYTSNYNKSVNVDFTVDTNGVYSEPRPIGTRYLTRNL
T1 sequence (P03135 203-735, chain 3 of 3): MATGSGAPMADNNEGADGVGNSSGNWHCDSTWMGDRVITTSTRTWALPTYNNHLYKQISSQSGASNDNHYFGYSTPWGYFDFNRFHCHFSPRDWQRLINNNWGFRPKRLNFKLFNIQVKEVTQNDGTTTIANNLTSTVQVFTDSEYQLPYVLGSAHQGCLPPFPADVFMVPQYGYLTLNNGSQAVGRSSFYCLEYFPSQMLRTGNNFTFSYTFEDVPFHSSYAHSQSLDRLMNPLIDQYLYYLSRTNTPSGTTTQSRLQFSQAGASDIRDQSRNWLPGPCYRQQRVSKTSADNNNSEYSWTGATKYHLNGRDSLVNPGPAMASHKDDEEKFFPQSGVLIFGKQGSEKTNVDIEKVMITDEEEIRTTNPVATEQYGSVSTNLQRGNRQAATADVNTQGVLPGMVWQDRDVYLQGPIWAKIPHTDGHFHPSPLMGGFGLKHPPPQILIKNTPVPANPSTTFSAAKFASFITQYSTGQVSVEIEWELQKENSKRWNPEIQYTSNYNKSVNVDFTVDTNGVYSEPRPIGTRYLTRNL
MEASURED ATTRIBUTE: Residual activity [%] (%)
A number alone suffices; assume %.

AAV-binding protein No. 136 (AVR8g + Glu335Val, Thr343Ser) (receptor) MGSAGESDQITLPKNEVQLNAYVLQVPPKGETCSYDWQLITHPRDYSGEMEGEHSQILKLSNLTPGLYEFKVIVEGQNAHSEGYVNVTVEPEPRKNRPPIAIVSPQFQEISLPTTSTVIDGSQSTDDDKIVQYHWEELKGPLREEKISEDTAILKLSKLVPGNYTFRLTVVDSDGATDSTTANLTVNKAVDHHHHHH :: 38.8
AAV-binding protein No. 124 (AVR8g + Gln441Arg) (receptor) MGSAGESDQITLPKNEVQLNAYVLQEPPKGETCTYDWQLITHPRDYSGEMEGEHSQILKLSNLTPGLYEFKVIVEGQNAHSEGYVNVTVEPEPRKNRPPIAIVSPQFQEISLPTTSTVIDGSQSTDDDKIVRYHWEELKGPLREEKISEDTAILKLSKLVPGNYTFRLTVVDSDGATDSTTANLTVNKAVDHHHHHH :: 25.2

Report Residual activity [%] for AVR10 (AAV-binding protein No. 143; AVR8g + Val381Ala, Ile382Val) (receptor) MGSAGESDQITLPKNEVQLNAYVLQEPPKGETCTYDWQLITHPRDYSGEMEGEHSQILKLSNLTPGLYEFKAVVEGQNAHSEGYVNVTVEPEPRKNRPPIAIVSPQFQEISLPTTSTVIDGSQSTDDDKIVQYHWEELKGPLREEKISEDTAILKLSKLVPGNYTFRLTVVDSDGATDSTTANLTVNKAVDHHHHHH please.
90.3
